Target: SGK1 (Homo sapiens, UniProt O00141)
Construct: purchased Carna Biosciences
Sequence (O00141 whole entry): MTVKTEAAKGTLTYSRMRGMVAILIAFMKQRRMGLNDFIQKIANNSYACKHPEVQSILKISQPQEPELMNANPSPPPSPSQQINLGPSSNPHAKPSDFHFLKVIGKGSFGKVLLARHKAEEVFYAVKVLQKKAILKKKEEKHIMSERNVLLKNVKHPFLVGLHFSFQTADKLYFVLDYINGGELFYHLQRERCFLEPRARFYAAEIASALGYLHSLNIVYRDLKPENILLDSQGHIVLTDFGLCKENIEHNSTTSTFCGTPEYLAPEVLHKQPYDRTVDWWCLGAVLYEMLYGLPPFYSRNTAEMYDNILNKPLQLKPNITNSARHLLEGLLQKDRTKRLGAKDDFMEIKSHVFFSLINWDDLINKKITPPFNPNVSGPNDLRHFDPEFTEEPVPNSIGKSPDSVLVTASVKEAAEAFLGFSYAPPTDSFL
Assay: LabChip (Caliper) kinase assay, SGK1
Type: biochemical
Details: compound at 10 nM, read-out: remaining kinase activity (in %) / percentage of inhibition
Collected inhibition at 0.01 µM values appear next to each entry.
Number first, unit second.

C[C@H]1O[C@@H](n2c3ccccc3c3c4c(c5c6ccccc6[nH]c5c32)CNC4=O)C[C@@H](O)[C@@H]1O [formula (XV), N^13-1′-β-D-olivosyl-k252c] :: 9%
C[C@@H]1O[C@@H](n2c3ccccc3c3c4c(c5c6ccccc6[nH]c5c32)C(=O)NC4=O)C[C@H](O)[C@H]1O [formula (IV), N^13-1′-β-L-olivosylarcyriaflavin] :: 9%
C[C@@H]1O[C@@H](n2c3ccccc3c3c4c(c5c6ccccc6[nH]c5c32)C(=O)NC4=O)C[C@@H](O)[C@H]1O [formula (V), N^13-1′-β-L-digitoxosylarcyriaflavin] :: 17%

C[C@H]1O[C@@H](n2c3ccccc3c3c4c(c5c6ccccc6[nH]c5c32)C(=O)NC4=O)C[C@@H](O)[C@@H]1O [formula (VI), N^13-1′-β-D-olivosylarcyriaflavin] tested on SGK1 (Homo sapiens, UniProt O00141) gave inhibition at 0.01 µM: 12%

Entry C[C@@H]1O[C@@H](n2c3ccccc3c3c4c(c5c6ccccc6[nH]c5c32)CNC4=O)C[C@@H](O)[C@H]1O [formula (XIV), N^13-1′-β-L-digitoxosyl-k252c] ; assay system SGK1 (Homo sapiens, UniProt O00141); inhibition at 0.01 µM recorded at 6%

Per the reported SGK1 (Homo sapiens, UniProt O00141) data, C[C@@H]1O[C@@H](n2c3ccccc3c3c4c(c5c6ccccc6[nH]c5c32)CNC4=O)[C@H](O)[C@H](O)[C@H]1O [formula (XII), N^13-1′-β-L-rhamnosyl-k252c] has inhibition at 0.01 µM of 7%

Per the reported SGK1 (Homo sapiens, UniProt O00141) data, C[C@@H]1O[C@@H](n2c3ccccc3c3c4c(c5c6ccccc6[nH]c5c32)CNC4=O)C[C@H](O)[C@H]1O [formula (XIII), N^13-1′-β-L-olivosyl-k252c] has inhibition at 0.01 µM of 8%

inhibition at 0.01 µM for SGK1 (Homo sapiens, UniProt O00141) with input C[C@@H]1O[C@@H](n2c3ccccc3c3c4c(c5c6ccccc6[nH]c5c32)C(=O)NC4=O)[C@H](O)[C@H](O)[C@H]1O [formula (III), N^13-1′-β-L-rhamnosylarcyriaflavin] equals 8%

###

Target: Ikkb (Homo sapiens, UniProt O14920)
Sequence (O14920 whole entry, species assumed): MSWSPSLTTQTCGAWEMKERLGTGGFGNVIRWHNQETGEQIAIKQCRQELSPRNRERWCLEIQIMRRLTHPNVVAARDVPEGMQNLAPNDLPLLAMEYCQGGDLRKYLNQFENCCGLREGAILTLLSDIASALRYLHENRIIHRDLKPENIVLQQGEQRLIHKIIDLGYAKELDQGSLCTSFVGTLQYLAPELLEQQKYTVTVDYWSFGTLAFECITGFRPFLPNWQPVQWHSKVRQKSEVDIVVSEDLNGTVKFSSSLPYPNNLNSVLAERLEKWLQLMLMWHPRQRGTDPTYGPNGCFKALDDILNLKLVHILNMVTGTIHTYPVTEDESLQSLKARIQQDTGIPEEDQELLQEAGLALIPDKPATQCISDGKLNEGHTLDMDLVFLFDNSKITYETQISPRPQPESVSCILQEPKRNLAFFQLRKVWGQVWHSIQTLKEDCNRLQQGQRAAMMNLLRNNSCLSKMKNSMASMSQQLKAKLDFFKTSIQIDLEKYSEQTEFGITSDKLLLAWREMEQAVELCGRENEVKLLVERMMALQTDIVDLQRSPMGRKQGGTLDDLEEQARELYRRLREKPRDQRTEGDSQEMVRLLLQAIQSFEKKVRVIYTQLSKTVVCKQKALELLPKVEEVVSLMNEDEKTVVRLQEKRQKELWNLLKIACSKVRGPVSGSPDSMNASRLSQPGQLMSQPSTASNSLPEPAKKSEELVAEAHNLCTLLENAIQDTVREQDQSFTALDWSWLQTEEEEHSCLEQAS
Assay: LabChip (Caliper) kinase assay, Ikkb
Type: biochemical
Settings: compound at 10 nM, read-out: remaining kinase activity (in %) / percentage of inhibition
inhibition at 0.01 µM values for the compounds below.
Remember to follow the number with its unit.

C[C@@H]1O[C@@H](n2c3ccccc3c3c4c(c5c6ccccc6[nH]c5c32)C(=O)NC4=O)[C@H](O)[C@H](O)[C@H]1O :: -10%
C[C@@H]1O[C@@H](n2c3ccccc3c3c4c(c5c6ccccc6[nH]c5c32)C(=O)NC4=O)C[C@@H](O)[C@H]1O :: 37%
C[C@@H]1O[C@@H](n2c3ccccc3c3c4c(c5c6ccccc6[nH]c5c32)CNC4=O)C[C@H](O)[C@H]1O [formula (XIII), N^13-1′-β-L-olivosyl-k252c] :: -5%
C[C@@H]1O[C@@H](n2c3ccccc3c3c4c(c5c6ccccc6[nH]c5c32)CNC4=O)[C@H](O)[C@H](O)[C@H]1O [formula (XII), N^13-1′-β-L-rhamnosyl-k252c] :: -5%

Let us move to another entry and its inhibition at 0.01 µM.
Looking up C[C@H]1O[C@@H](n2c3ccccc3c3c4c(c5c6ccccc6[nH]c5c32)C(=O)NC4=O)C[C@@H](O)[C@@H]1O , I found its inhibition at 0.01 µM recorded as 7%

Recorded values, source patent US8598132B2.
